- Tested on: Trichomonas vaginalis G3 trophozoites
- PARTICULARS: HTS, parasite screen at 1 µg/mL, replicate 1
We use 10% as the dividing line for T.vaginalis_%inb_Rep1: on or above the line is 1.0, below is 0.0.

// below: answered compounds
COMPOUND	CLASSIFICATION
C[C@@H]1C=C2C(=O)O[C@@H]3CC[C@H](C1)[C@]23O	1.0
CC(=O)c1c(O)c(C(C)=O)c(O)c(C(C)=O)c1O	1.0
CC(=O)c1c(O)cc(O)c(C(C)=O)c1O	0.0
CC1=CC(O/C=C2\CCOC2=O)OC1=O (stereo not shown)	0.0

INPUT: Is the recorded value of T.vaginalis_%inb_Rep1 equal to or greater than 10% for this compound? CCCCCC(=O)C(CCCC)c1oc(=O)c(CCCC)c(O)c1CCCC (stereo not shown)
OUTPUT: 1.0

INPUT: Is the recorded value of T.vaginalis_%inb_Rep1 equal to or greater than 10% for this compound? C=C(NC(=O)C(=C)NC(=O)c1ccc2c(n1)-c1coc(n1)C(=C)NC(=O)C(=C)NC(=O)c1nc(oc1C)C(=C)NC(=O)C(C(C)(C)O)NC(=O)C(=C)NC(=O)c1coc(n1)/C(=C/C)NC(=O)[C@H]([C@@H](C)O)NC(=O)c1csc-2n1)C(N)=O (stereo partly shown)
OUTPUT: 1.0

INPUT: Is the recorded value of T.vaginalis_%inb_Rep1 equal to or greater than 10% for this compound? Cc1c2c(c(O)c3c(O)ccc(Cl)c13)C(=O)C1(O)C(O)=C(C(N)=O)C(=O)C(N(C)C)C1C2.Cl (stereo not shown)
OUTPUT: 1.0
